Attribution: paper PMC5945843

- test_system: heteromeric KCNQ2/3 channels (Homo sapiens, UniProt O43525+O43526)
- Sequence (O43526 whole entry): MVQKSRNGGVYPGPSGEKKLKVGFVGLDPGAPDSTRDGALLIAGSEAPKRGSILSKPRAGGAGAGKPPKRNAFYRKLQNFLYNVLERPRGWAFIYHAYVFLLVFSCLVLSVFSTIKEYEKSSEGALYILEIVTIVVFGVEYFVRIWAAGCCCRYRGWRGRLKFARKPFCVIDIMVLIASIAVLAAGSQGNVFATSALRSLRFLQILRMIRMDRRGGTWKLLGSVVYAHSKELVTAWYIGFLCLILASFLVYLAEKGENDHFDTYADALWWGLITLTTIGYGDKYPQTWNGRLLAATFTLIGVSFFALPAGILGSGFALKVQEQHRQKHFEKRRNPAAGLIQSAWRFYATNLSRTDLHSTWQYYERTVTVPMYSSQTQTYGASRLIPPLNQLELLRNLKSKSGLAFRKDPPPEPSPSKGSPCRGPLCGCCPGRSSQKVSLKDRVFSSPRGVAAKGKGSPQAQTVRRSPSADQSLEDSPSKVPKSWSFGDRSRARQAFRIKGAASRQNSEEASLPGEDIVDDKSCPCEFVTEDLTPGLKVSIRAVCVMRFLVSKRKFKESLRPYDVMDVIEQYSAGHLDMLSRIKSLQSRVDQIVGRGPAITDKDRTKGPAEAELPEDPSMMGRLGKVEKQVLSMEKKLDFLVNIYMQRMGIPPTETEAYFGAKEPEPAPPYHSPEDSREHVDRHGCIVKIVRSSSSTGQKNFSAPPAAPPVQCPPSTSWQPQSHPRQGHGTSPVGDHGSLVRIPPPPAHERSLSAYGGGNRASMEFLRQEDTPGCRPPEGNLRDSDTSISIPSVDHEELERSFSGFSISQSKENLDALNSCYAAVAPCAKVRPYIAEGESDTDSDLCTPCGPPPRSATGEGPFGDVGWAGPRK
- Sequence (O43525 whole entry): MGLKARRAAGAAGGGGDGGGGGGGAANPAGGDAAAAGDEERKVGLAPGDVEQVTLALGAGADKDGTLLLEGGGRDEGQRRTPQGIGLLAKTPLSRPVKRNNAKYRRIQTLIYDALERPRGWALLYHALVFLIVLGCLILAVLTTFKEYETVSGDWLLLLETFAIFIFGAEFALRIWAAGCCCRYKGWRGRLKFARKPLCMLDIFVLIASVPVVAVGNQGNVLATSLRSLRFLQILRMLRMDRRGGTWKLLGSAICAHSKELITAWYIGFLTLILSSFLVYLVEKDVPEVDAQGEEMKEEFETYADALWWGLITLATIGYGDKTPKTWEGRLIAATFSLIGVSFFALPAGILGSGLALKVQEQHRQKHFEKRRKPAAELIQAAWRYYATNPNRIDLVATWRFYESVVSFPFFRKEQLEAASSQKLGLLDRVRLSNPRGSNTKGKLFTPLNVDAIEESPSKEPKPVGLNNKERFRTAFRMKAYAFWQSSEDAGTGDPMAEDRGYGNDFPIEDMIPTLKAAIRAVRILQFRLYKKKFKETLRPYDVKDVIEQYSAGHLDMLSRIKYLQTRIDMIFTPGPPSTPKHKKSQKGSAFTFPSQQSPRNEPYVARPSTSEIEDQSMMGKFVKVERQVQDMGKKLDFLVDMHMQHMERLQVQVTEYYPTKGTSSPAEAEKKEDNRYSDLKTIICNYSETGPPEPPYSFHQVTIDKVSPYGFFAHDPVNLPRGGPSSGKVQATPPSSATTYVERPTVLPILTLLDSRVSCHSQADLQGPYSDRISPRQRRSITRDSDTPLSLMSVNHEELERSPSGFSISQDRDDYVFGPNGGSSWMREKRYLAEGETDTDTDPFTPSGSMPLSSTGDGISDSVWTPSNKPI
- procedure_details: TEVC in Xenopus oocytes
- experimental_context: at −60 mV
property_name: EC50 (nM)
Express your answer in nM, writing the number without its unit.

NCC(O)CC(=O)O (stereo not drawn) [GABOB, γ-amino-β-hydroxybutyric acid] | 100

Next:
QUERY: Give the reported EC50 for this compound. CC(O)CC(=O)O (stereo not drawn) [BHB, β-hydroxybutyric acid]
RESULT: 950
